- Test system: Sodium- and chloride-dependent GABA transporter 1 (Mus musculus, UniProt P31648)
- Experiment: Inhibition of GAT1 in mouse D8 cells assessed as [3H]GABA transport by liquid scintillation counting
- Type: cell-based
pIC50: −log10 of the molar value.
Note to self: values exactly at 5 are fulfilled. So pIC50 at or above 5 is fulfilled, below is not fulfilled.

[
  {
    "Molecule": "Cc1ccsc1C(=CCCN1CCC[C@@H](C(=O)O)C1)c1sccc1C [TIAGABINE]",
    "Group label": "fulfilled"
  },
  {
    "Molecule": "Cc1ccsc1C(=CCCN1CCC[C@H]1C(=O)O)c1sccc1C",
    "Group label": "fulfilled"
  },
  {
    "Molecule": "O=C(O)C[C@@H]1C[C@@H](O)CN1CCC=C(c1ccccc1)c1ccccc1",
    "Group label": "fulfilled"
  },
  {
    "Molecule": "Cc1ccsc1C(=CCCN1C[C@@H](F)C[C@H]1C(=O)O)c1sccc1C",
    "Group label": "not fulfilled"
  },
  {
    "Molecule": "O=C(O)C[C@H]1C[C@H](F)CN1CCC=C(c1ccccc1)c1ccccc1",
    "Group label": "fulfilled"
  },
  {
    "Molecule": "O=C(O)[C@@H]1CCCN1CCC=C(c1ccccc1)c1ccccc1",
    "Group label": "fulfilled"
  },
  {
    "Molecule": "O=C(O)C[C@@H]1CCCN1CCC=C(c1ccccc1)c1ccccc1",
    "Group label": "fulfilled"
  },
  {
    "Molecule": "O=C(O)[C@@H]1C[C@H](F)CN1CCC=C(c1ccccc1)c1ccccc1",
    "Group label": "not fulfilled"
  },
  {
    "Molecule": "Cc1ccsc1C(=CCCN1CCC[C@H]1CC(=O)O)c1sccc1C",
    "Group label": "fulfilled"
  },
  {
    "Molecule": "O=C(O)C[C@H]1C[C@@H](F)CN1CCC=C(c1ccccc1)c1ccccc1",
    "Group label": "fulfilled"
  },
  {
    "Molecule": "Cc1ccsc1C(=CCCN1C[C@H](O)C[C@H]1CC(=O)O)c1sccc1C",
    "Group label": "fulfilled"
  },
  {
    "Molecule": "Cc1ccsc1C(=CCCN1C[C@@H](O)C[C@H]1CC(=O)O)c1sccc1C",
    "Group label": "fulfilled"
  },
  {
    "Molecule": "O=C(O)C[C@@H]1C[C@H](O)CN1CCC=C(c1ccccc1)c1ccccc1",
    "Group label": "fulfilled"
  },
  {
    "Molecule": "Cc1ccsc1C(=CCCN1C[C@@H](F)C[C@@H]1CC(=O)O)c1sccc1C",
    "Group label": "fulfilled"
  },
  {
    "Molecule": "Cc1ccsc1C(=CCCN1C[C@H](F)C[C@@H]1CC(=O)O)c1sccc1C",
    "Group label": "fulfilled"
  },
  {
    "Molecule": "O=C(O)[C@@H]1C[C@@H](F)CN1CCC=C(c1ccccc1)c1ccccc1",
    "Group label": "not fulfilled"
  },
  {
    "Molecule": "O=C(O)[C@@H]1C[C@@H](O)CN1CCC=C(c1ccccc1)c1ccccc1",
    "Group label": "not fulfilled"
  }
]

Data origin, for the record: ChEMBL document CHEMBL1152571
